# Test system: Vero E6 infected with SARS-CoV-2
# Assay comment: inhibition of SARS-CoV-2 cytopathic effect; higher = more antiviral protection, active = above 15
# Stated conditions: 1 nM; 48 h
The molecules listed here are annotated with their inhibition of SARS-CoV-2 cytopathic effect.
Numeric only. Scale: %

# count of solved cases: 5
1) CC(C)C[C@@H]1NC(=O)[C@@H](C(C)C)NC(=O)[C@@H]2CCCN2C(=O)[C@@H](CC(=O)O)NC(=O)[C@@H](Cc2c[nH]c3ccccc23)NC1=O
-2.63
2) CC(=O)c1c(O)cc(C)oc1=O [dehydroacetic-acid]
2.87
3) C[S+]([O-])c1ccc(-c2nc(-c3ccc(F)cc3)c(-c3ccncc3)[nH]2)cc1 (stereo unspecified)
-0.95
4) Cc1ncc([N+](=O)[O-])n1CC(O)CN1CCOCC1 (stereo unspecified)
-0.31
5) CC(=O)[C@H]1CC[C@H]2[C@@H]3C[C@H](C)C4=CC(=O)CC[C@]4(C)[C@H]3[C@@H](O)C[C@]12C
-0.04

*Q* Hi! What's the reported inhibition of SARS-CoV-2 cytopathic effect for CC(C)Cc1ccc(C(C)C(=O)NO)cc1 (stereo unspecified) on Vero E6 infected with SARS-CoV-2?
*A* 1.38

*Q* Likewise for CCCCc1ccc(NS(=O)(=O)c2ccc(F)cc2)cc1 ?
*A* -1.42

*Q* Next record, please: COc1ccc(-c2c(C)c(C(=O)NN3CCCCC3)nn2-c2ccc(Cl)cc2Cl)cc1
*A* -1.3

*Q* Same lookup for C1Cc2[nH]nc(-c3nn[nH]n3)c2C1 , please.
*A* -1.32

*Q* Same lookup for O=C(O)[C@H](CC(=O)N1C[C@H]2CCCC[C@H]2C1)Cc1ccccc1 [mitiglinide] , please.
*A* -0.3

* * *

# Tested on: Vero E6 infected with SARS-CoV-2
# Assay comment: inhibition of SARS-CoV-2 cytopathic effect; higher = more antiviral protection, active = above 15
# Stated conditions: 8.33 nM; 48 h
Test readout: inhibition of SARS-CoV-2 cytopathic effect (%)
Give your result in % as a bare value.

*Q* Query: inhibition of SARS-CoV-2 cytopathic effect; subject: Nc1ccn([C@H]2CO[C@@H](CO)S2)c(=O)n1
*A* 2.59

*Q* Another compound to check: CCOCCn1c(N2CCCN(C)CC2)nc2ccccc21
*A* 0.36

*Q* Would you mind doing COC(=O)N1CC[C@@H]2[C@H]1CCC[C@@]2(O)C#Cc1cccc(C)c1 as well?
*A* -0.18

* * *

# Tested on: Vero E6 infected with SARS-CoV-2
# Assay comment: morphology score (similarity to uninfected cells); higher = more like uninfected cells
# Stated conditions: 24 h
Test readout: morphology score
Reply: number alone, nothing else.

1) CC(COc1ccccc1)N(CCCl)Cc1ccccc1 (stereo not drawn) [phenoxybenzamine] (10 µM)
0.146

*Q* Entry under review: CO[C@H]1C[C@H](O[C@H]2CC[C@@]3(C)[C@H](CC[C@@H]4[C@@H]3CC[C@]3(C)[C@@H](C5=CC(=O)OC5)[C@@H](OC(C)=O)C[C@]43O)C2)O[C@@H](C)[C@@H]1O [oleandrin] (0.833333 µM) . Reported morphology score?
*A* -0.173

*Q* Try this compound next: CCCCOc1cc(CC2CNC(=O)N2)ccc1OC (stereo not drawn) (10 µM)
*A* 0.429
